System: LAETG (Abz-LAETGK(Dnp)-CONH2)
Assay: In vitro sortase kinetics HPLC assay, LAETG substrate
Type: biochemical
Conditions: substrate 2A (LAETG), 1 mM; GGG varied
Measurement Name: kHydrolysis (Hz)

// query Request the reported kHydrolysis (Hz) associated with 2A.6B: 5mut + R99K A104H K138V D160K* K162R I182V (protein) QAKPQIPKDKSKVAGYIEIPDADIKEPVYPGPATREQLNKGVSFHEENESLDDQNISIAGHTFIDRPNYQFTNLKAAKVGSMVYFKVGNETRKYKMTSIRKVRPTAVEVLDEQKGKDKQLTLVTCDDYNEETGVWETRKIFVATEVK
// result 0.01048 Hz
